assay: Kinetic solubility in PBS pH 7.4, HPLC-UV (Example 21, Table 27); assay type: physicochemical; conditions: phosphate buffered saline, aqueous buffer, kinetic from dmso stock, 0.5 M PBS, shaken minimum 24 h at approximately 25° C., HPLC-UV 270 nm
Entries and their solubility kinetic

Worked cases, answers included:
smiles.record: COc1ccc(N2CCCN(Cc3ccnc4c3c(Cl)cn4CC(=O)N(C)C)C2=O)cc1OCCCC(C)(C)C
measurement.kind: solubility kinetic
value.measured: < 10 µM
//
smiles.record: CCCCCOc1cc(N2CCCN(Cc3ccnc4c3c(Cl)cn4CCOCCNC(C)=O)C2=O)ccc1OC
measurement.kind: solubility kinetic
value.measured: < 10 µM

Ask: Please look up its solubility kinetic: "CCCCCOc1cc(N2CC[C@H](C)N(Cc3cccc4c3c(Cl)cn4CC(=O)N3CCCOCC3)C2=O)ccc1OC"
Result: < 10 µM
